target: Membrane-associated tyrosine- and threonine-specific cdc2-inhibitory kinase (Homo sapiens, UniProt Q99640); experiment: Inhibition of PKMYT1 (unknown origin) incubated for 1 hr by LanthaScreen Eu kinase binding method
Sequence (Q99640 whole entry): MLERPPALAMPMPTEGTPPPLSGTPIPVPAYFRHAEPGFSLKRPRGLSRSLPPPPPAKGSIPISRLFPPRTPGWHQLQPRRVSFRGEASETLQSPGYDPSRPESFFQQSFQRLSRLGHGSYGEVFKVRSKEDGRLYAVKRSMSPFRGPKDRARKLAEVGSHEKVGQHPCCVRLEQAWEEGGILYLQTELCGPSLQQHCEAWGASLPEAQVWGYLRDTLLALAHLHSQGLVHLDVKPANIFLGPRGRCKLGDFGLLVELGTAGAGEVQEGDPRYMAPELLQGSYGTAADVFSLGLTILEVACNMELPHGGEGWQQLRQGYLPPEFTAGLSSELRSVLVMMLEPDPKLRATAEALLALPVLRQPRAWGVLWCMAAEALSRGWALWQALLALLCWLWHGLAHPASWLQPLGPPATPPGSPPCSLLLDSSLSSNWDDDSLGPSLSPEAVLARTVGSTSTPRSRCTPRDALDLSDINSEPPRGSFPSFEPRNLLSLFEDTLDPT
Please provide measured IC50 for the entries that follow.
Answers are plain numbers, in nM.

Some solved cases for reference:
Molecule | IC50 / nM
O=c1cc(-c2ccc(O)c(O)c2)oc2cc(O)cc(O)c12 | 1500
O=C(O[C@@H]1Cc2c(O)cc(O)cc2O[C@H]1c1cc(O)c(O)c(O)c1)c1cc(O)c(O)c(O)c1 [GALLOCATECHIN GALLATE] | 159
COc1ccc(-c2oc3c(CC=C(C)C)c(O)cc(O)c3c(=O)c2O)cc1 | 51000

Please give IC50 for each item listed below.
1. O=c1c(-c2ccc(O)cc2)coc2cc(O)cc(O)c12
2. O=C(O[C@@H]1Cc2c(O)cc(O)cc2O[C@@H]1c1cc(O)c(O)c(O)c1)c1cc(O)c(O)c(O)c1 [EPIGALOCATECHIN GALLATE]

OUTPUT:
1. 78000
2. 137
